test system: MCF10a; experiment: MCF10a cell growth inhibition; assay type: cell-based; conditions: Homo sapiens, MCF-10A, Tables 8-15; no unit printed there
result-type: GI50 (µM)
Give the number; µM is assumed, so skip it.

Observe how each entry below is paired with its result.
Exercise: For `Cc1ccccc1S(=O)(=O)N1[C@@H](c2ccc(Cl)cc2)C(C(=O)N[C@@H](Cc2ccccc2)C(N)=O)=C[C@H]1C(C)(C)C` , what is its reported GI50?
Solution: 13.2

Exercise: Would you kindly share the measured GI50 for `COC(=O)[C@H](Cc1ccccc1)NC(=O)COCC1=C[C@@H](C(C)(C)C)N(S(=O)(=O)c2ccccc2C)[C@H]1c1ccc(Cl)cc1` ?
Solution: 20

Could you now look at the following compound, please?
Exercise: I am curious: what GI50 value has been reported for Cc1ccccc1S(=O)(=O)N1[C@@H](c2ccc(Cl)cc2)C(C(=O)N[C@@H](Cc2ccccc2)C(N)=O)=C[C@H]1C(C)CC(C)(C)C (stereo partly drawn) ?
Solution: 9.16
